# measurement-target: T1, FtsZ (purified, C. crescentus) (Caulobacter crescentus, UniProt B8H080 1-508)
# T1 construct: FtsZ, Caulobacter crescentus; In the assays it was polymerised with GTP and MgCl2; source: E. coli Rosetta (DE3) pLysS, purified as previously described (Sundararajan et al., 2015)
# T1 sequence (looked up): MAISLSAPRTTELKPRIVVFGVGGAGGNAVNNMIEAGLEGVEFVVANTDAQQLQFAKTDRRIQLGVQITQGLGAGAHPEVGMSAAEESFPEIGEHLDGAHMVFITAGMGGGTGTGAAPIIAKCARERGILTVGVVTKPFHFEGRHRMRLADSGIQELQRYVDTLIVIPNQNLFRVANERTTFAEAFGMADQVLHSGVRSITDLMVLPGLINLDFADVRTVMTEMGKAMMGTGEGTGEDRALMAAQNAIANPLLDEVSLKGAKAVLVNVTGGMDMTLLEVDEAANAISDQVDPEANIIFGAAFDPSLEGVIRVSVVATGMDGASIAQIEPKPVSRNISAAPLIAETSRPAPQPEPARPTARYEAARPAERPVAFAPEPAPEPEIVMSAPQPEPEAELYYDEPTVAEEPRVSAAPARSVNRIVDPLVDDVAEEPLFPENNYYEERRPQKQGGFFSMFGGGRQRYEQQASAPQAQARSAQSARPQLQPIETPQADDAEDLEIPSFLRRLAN
# experiment-summary: co-sedimentation; high speed co-pelleting: 4 µM FzlA variant ± 2 µM FtsZ, 50 mM MES pH 6.5, 50 mM KCl, 10 mM MgCl2, 2 mM GTP, 0.05% Triton X-100, 15 min room temperature, 280 000 x g 15 min 25°C; Coomassie gel quantified
# protocol-conditions: both partners purified
Measured fold change of FzlA in pellet (with FtsZ vs. alone), high speed of individual entries
property-name: fold change of FzlA in pellet (with FtsZ vs. alone), high speed (fold)

>  <binder>
untagged WT FzlA (natural protein, Caulobacter crescentus, FzlA, Caulobacter crescentus; source: E. coli Rosetta (DE3) pLysS, purified (HisTrap, His6-SUMO cleaved with His6-ULP, second HisTrap flow through)) MSVERTLHHFPLDPASRQVRLALGEKRLPFVEMQVRYWEMPPEFTSLNPSGMPPVLVETKHQRNLVICETRAILEHIEETETEPPLLGRDPAERAEARRLLQWFDRKFDNEVNGFLLHEKMEKRLLRMGAPDLAALRQGREALRMHLGYIESLLQTRDWLAGRRMSLADFAAAAHLSVIDYFGDVPWKDFQAAKTWYMKLKSRPCFRPILADRWPGLAPAAHYDDLDF

>  <unit-info>
fold

>  <observed-measurement>
20.4

$$$$
>  <binder>
FzlA^NB1 (W38A R124D) (natural protein, Caulobacter crescentus, FzlA, Caulobacter crescentus, with W38A R124D; Self-aggregates under the standard conditions (pH 6.5, 2:1 FzlA:FtsZ); source: E. coli Rosetta (DE3) pLysS, purified (HisTrap, His6-SUMO cleaved)) MSVERTLHHFPLDPASRQVRLALGEKRLPFVEMQVRYAEMPPEFTSLNPSGMPPVLVETKHQRNLVICETRAILEHIEETETEPPLLGRDPAERAEARRLLQWFDRKFDNEVNGFLLHEKMEKDLLRMGAPDLAALRQGREALRMHLGYIESLLQTRDWLAGRRMSLADFAAAAHLSVIDYFGDVPWKDFQAAKTWYMKLKSRPCFRPILADRWPGLAPAAHYDDLDF

>  <unit-info>
fold

>  <observed-measurement>
0.91

$$$$
>  <binder>
FzlA^NB2 (E119K) (natural protein, Caulobacter crescentus, FzlA, Caulobacter crescentus, with E119K; source: E. coli Rosetta (DE3) pLysS, purified (HisTrap, His6-SUMO cleaved)) MSVERTLHHFPLDPASRQVRLALGEKRLPFVEMQVRYWEMPPEFTSLNPSGMPPVLVETKHQRNLVICETRAILEHIEETETEPPLLGRDPAERAEARRLLQWFDRKFDNEVNGFLLHKKMEKRLLRMGAPDLAALRQGREALRMHLGYIESLLQTRDWLAGRRMSLADFAAAAHLSVIDYFGDVPWKDFQAAKTWYMKLKSRPCFRPILADRWPGLAPAAHYDDLDF

>  <unit-info>
fold

>  <observed-measurement>
1.24

$$$$
